experimental_target: human Ephrin type-B Receptor 1 (EphB1), EPHB1 (gene 2047)
measurement_description: NVS_ENZ_hEphB1: NovaScreen (NVS) Enzymatic Assay for human Ephrin type-B Receptor 1 (EphB1) (AID 2283154)
Description: NVS_ENZ_hEphB1 is a biochemical, single-readout assay that uses extracted gene-proteins in a cell-free assay. Measurements were taken 1 hour after chemical dosing in a 384-well plate.NVS_ENZ_hEphB1 is one of one assay component(s) measured or calculated from the NVS_ENZ_hEphB1 assay. […] This assay endpoint, NVS_ENZ_hEphB1, was analyzed in the positive analysis fitting direction relative to DMSO as the negative control and baseline of activity. […]
Results filed as inconclusive are left out. Active and inactive are the calls of the source. How the source made its calls: active means hit-call score of the fitted dose curve at least 0.9, where 1 is the maximum; inconclusive means response in the unintended direction; inactive means score below 0.9.
measured_quantity: outcome

Sample records with outcome:
What measured outcome goes with "CCOP(=O)(OCC)Oc1nc(Cl)c(Cl)cc1Cl" ? inactive

What measured outcome goes with CCOC(=O)C(C)OC(=O)c1cc(Oc2ccc(C(F)(F)F)cc2Cl)ccc1[N+](=O)[O-] (stereo unspecified) ? inactive

What measured outcome goes with "COC(=O)N(C(=O)N1CO[C@@]2(C(=O)OC)Cc3cc(Cl)ccc3C2=N1)c1ccc(OC(F)(F)F)cc1" ? inactive

What measured outcome goes with "Cc1c(COC(=O)[C@@H]2[C@H](/C=C(\Cl)C(F)(F)F)C2(C)C)cccc1-c1ccccc1" ? inactive

What measured outcome goes with "CNC(=O)N(C)c1nnc(C(C)(C)C)s1" ? inactive

What measured outcome goes with "C=CCOC(=O)C(C)(C)OC(=O)c1cc(-n2c(=O)cc(C(F)(F)F)n(C)c2=O)ccc1Cl" ? inactive

What measured outcome goes with "Cc1ccc(N=CN(C)C=Nc2ccc(C)cc2C)c(C)c1" ? inactive

What measured outcome goes with CC1(C)C(C(=O)OC(C#N)c2cccc(Oc3ccccc3)c2)C1(C)C (stereo unspecified) ? inactive

Next:
What measured outcome goes with "O=C(Nc1ccccc1-c1ccc(Cl)cc1)c1cccnc1Cl" ? inactive

What measured outcome goes with "CN=C=S" ? inactive

What measured outcome goes with "Nc1c(Cl)c(F)nc(OCC(=O)O)c1Cl" ? inactive

###

experimental_target: human CYP19A1, CYP19A1 (gene 1588) (UniProt P11511)
Sequence (P11511 whole entry, looked up): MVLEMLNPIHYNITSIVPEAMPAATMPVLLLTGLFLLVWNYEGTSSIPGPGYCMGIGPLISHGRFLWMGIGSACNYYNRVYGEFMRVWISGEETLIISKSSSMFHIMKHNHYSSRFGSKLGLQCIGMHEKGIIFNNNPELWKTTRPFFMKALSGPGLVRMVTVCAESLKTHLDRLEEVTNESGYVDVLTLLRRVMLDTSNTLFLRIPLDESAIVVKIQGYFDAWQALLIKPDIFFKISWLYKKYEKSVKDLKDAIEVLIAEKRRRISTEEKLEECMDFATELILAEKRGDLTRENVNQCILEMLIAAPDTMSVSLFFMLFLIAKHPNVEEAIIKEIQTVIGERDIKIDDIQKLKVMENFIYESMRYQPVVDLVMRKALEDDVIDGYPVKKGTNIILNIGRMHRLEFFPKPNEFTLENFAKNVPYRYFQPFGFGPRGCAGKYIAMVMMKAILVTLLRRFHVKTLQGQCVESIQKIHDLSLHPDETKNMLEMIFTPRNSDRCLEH
measurement_description: NVS_ADME_hCYP19A1: NovaScreen (NVS) CYP450-related Enzyme Activity (ADME) Assay for human CYP19A1 (AID 2283098)
Records with an inconclusive call do not appear. The source made the active and inactive calls. Rule for the calls: active = hit-call score of the fitted dose curve at least 0.9, where 1 is the maximum; inconclusive = response in the unintended direction; inactive = score below 0.9.
Pick one and only one: label 1 for active, label 0 for inactive

Below are worked cases with known answers.
So what was the verdict on CCCCC(C#N)(Cn1cncn1)c1ccc(Cl)cc1 (stereo not drawn) in this test? label 1

So what was the verdict on "OC(c1ccc(Cl)cc1)(c1ccc(Cl)cc1)C(Cl)(Cl)Cl" in this test? label 0

So what was the verdict on "CC(C)Oc1cccc(NC(=O)c2ccccc2C(F)(F)F)c1" in this test? label 0

So what was the verdict on "CC(C)NC(=O)N1CC(=O)N(c2cc(Cl)cc(Cl)c2)C1=O" in this test? label 0

So what was the verdict on "CCN(CC)c1nc(C)cc(OP(=S)(OC)OC)n1" in this test? label 0

Next:
So what was the verdict on CC(C)(C)C(=O)C(Oc1ccc(Cl)cc1)n1cncn1 (stereo not drawn) in this test? label 1

So what was the verdict on "Cc1c(COC(=O)[C@@H]2[C@H](/C=C(\Cl)C(F)(F)F)C2(C)C)cccc1-c1ccccc1" in this test? label 0

So what was the verdict on O=C1C2CC=CCC2C(=O)N1SC(Cl)(Cl)Cl (stereo not drawn) in this test? label 0

###

Read-out: sulfotransferase 2A1 (SULT2A1), SULT2A1 (gene 6822)
measurement_description: LTEA_HepaRG_SULT2A1: Life Technologies and Expression Analysis (LTEA) Assay for sulfotransferase 2A1 (SULT2A1) using HepaRG (AID 2283531)
condition_summary: mRNA level, 48 h; actives raise or lower the signal
Description: LTEA_HepaRG is a cell based, multiplexed-readout assay that uses HepaRG, a human liver cell line, with measurements taken at 48 hours after chemical dosing on a 96-well plate.LTEA_HepaRG_SULT2A1 is one of 102 assay component(s) measured in the LTEA HepaRG cell culture assay. It is a marker of NR mediated transport.Data from the assay component LTEA_HepaRG_SULT2A1 was analyzed into 1 endpoint. […]
The source made the active and inactive calls. The calls were made as follows: active = hit-call score of the fitted dose curve at least 0.9, where 1 is the maximum; inactive = score below 0.9.
Pick one and only one: active, inactive

Below are worked cases with known answers.
So what was the verdict on "Clc1nc(Cl)nc(Nc2ccccc2Cl)n1" in this test? inactive

So what was the verdict on "COc1cc(Cl)c(OC)cc1Cl" in this test? inactive

So what was the verdict on COCC(=O)N(c1c(C)cccc1C)C(C)C(=O)OC (stereo not drawn) in this test? inactive

So what was the verdict on "Cn1c(-c2ccccc2)cc(-c2ccccc2)[n+]1C" in this test? active

So what was the verdict on "C=C(C)CN(CC)c1c([N+](=O)[O-])cc(C(F)(F)F)cc1[N+](=O)[O-]" in this test? inactive

Next:
So what was the verdict on "COP(=S)(OC)Oc1ccc([N+](=O)[O-])c(C)c1" in this test? inactive

So what was the verdict on "CC(C)Nc1nc(Cl)nc(NC(C)C)n1" in this test? inactive

So what was the verdict on "CCCCOCN(C(=O)CCl)c1c(CC)cccc1CC" in this test? inactive

So what was the verdict on "O=P(O)(O)CCCl" in this test? inactive

So what was the verdict on "COC(=O)N(C(=O)N1CO[C@@]2(C(=O)OC)Cc3cc(Cl)ccc3C2=N1)c1ccc(OC(F)(F)F)cc1" in this test? active

So what was the verdict on "Nc1c(Cl)c(Cl)nc(C(=O)O)c1Cl" in this test? inactive

So what was the verdict on "O=c1n(Cl)c(=O)n(Cl)c(=O)n1Cl" in this test? inactive

So what was the verdict on "CCSC(=O)N1CCCCCC1" in this test? inactive

###

experimental_target: Hepatocyte nuclear factor 6 (Homo sapiens)
measurement_description: ATG_HNF6_CIS: Attagene CIS-FACTORIAL HepG2 Assay for human Hepatocyte Nuclear Factor 6 (HNF6) (AID 2282952)
condition_summary: HepG2 Attagene cis-factorial HNF6 reporter transcription; actives raise or lower the signal
Calls of active or inactive are those of the source. Rule for the calls: active = hit-call score of the fitted dose curve at least 0.9, where 1 is the maximum; inactive = score below 0.9.
Pick one and only one: label 1 (active), label 0 (inactive)

Below are worked cases with known answers.
So what was the verdict on "COc1ccc(-c2ccccc2)cc1NNC(=O)OC(C)C" in this test? label 0

So what was the verdict on Cc1cnc(C2=NC(C)(C(C)C)C(=O)N2)c(C(=O)O)c1 (centres undefined) in this test? label 0

So what was the verdict on "CSC(=O)c1c(C(F)F)nc(C(F)(F)F)c(C(=O)SC)c1CC(C)C" in this test? label 0

So what was the verdict on "COC(=O)N(C(=O)N1CO[C@@]2(C(=O)OC)Cc3cc(Cl)ccc3C2=N1)c1ccc(OC(F)(F)F)cc1" in this test? label 0

So what was the verdict on "Nc1cnn(-c2ccccc2)c(=O)c1Cl" in this test? label 0

So what was the verdict on "CC(C)N1C(=O)N(c2ccccc2)CSC1=NC(C)(C)C" in this test? label 0

Next:
So what was the verdict on CC(C)C1(C)N=C(c2ncccc2C(=O)O)NC1=O (centres undefined) in this test? label 0

So what was the verdict on "CCOc1nc(F)cc2nc(S(=O)(=O)Nc3c(Cl)cccc3Cl)nn12" in this test? label 0

So what was the verdict on "CS(=O)(=O)c1cc(C(F)(F)F)ccc1C(=O)c1cnoc1C1CC1" in this test? label 0

So what was the verdict on "N#Cc1c(Cl)cccc1Cl" in this test? label 0

So what was the verdict on "Clc1nc(Cl)nc(Nc2ccccc2Cl)n1" in this test? label 0

So what was the verdict on "COC(=O)c1c(C(F)F)nc(C(F)(F)F)c(C2=NCCS2)c1CC(C)C" in this test? label 0

So what was the verdict on "CCOP(=S)(OCC)Oc1nc(Cl)n(C(C)C)n1" in this test? label 0

So what was the verdict on CCOC(=O)C(C)OC(=O)c1cc(Oc2ccc(C(F)(F)F)cc2Cl)ccc1[N+](=O)[O-] (centres undefined) in this test? label 0

So what was the verdict on CCCN(CC)CC1COC2(CCC(C(C)(C)C)CC2)O1 (centres undefined) in this test? label 1

So what was the verdict on CC1(C)C(C(=O)OC(C#N)c2cccc(Oc3ccccc3)c2)C1(C)C (centres undefined) in this test? label 0

So what was the verdict on "COc1cc(Cl)c(OC)cc1Cl" in this test? label 0

###

Read-out: sulfotransferase 2A1 (SULT2A1), SULT2A1 (gene 6822)
measurement_description: LTEA_HepaRG_SULT2A1: Life Technologies and Expression Analysis (LTEA) Assay for sulfotransferase 2A1 (SULT2A1) using HepaRG (AID 2283531)
condition_summary: mRNA level, 48 h; actives raise or lower the signal
Activity calls are given as the source filed them. The calls were made as follows: active = hit-call score of the fitted dose curve at least 0.9, where 1 is the maximum; inactive = score below 0.9.
Pick one and only one: active, inactive

Below are worked cases with known answers.
So what was the verdict on CCCC(=NOCC)C1=C(O)CC(CC(C)SCC)CC1=O (configuration not stated) in this test? inactive

So what was the verdict on "OC(c1ccc(Cl)cc1)(c1ccc(Cl)cc1)C(Cl)(Cl)Cl" in this test? active

So what was the verdict on "COC(=O)NS(=O)(=O)c1ccc(N)cc1" in this test? inactive

So what was the verdict on "CNC(=O)Oc1cccc2ccccc12" in this test? inactive

So what was the verdict on "COC(=O)c1c(C(F)F)nc(C(F)(F)F)c(C2=NCCS2)c1CC(C)C" in this test? inactive

Next:
So what was the verdict on "CS(=O)(=O)c1cc(C(F)(F)F)ccc1C(=O)c1cnoc1C1CC1" in this test? inactive

So what was the verdict on "Cc1cc(C)nc(Nc2ccccc2)n1" in this test? inactive

So what was the verdict on CCOc1cc(C(C)(C)C)ccc1C1COC(c2c(F)cccc2F)=N1 (configuration not stated) in this test? active

So what was the verdict on "Nc1cnn(-c2ccccc2)c(=O)c1Cl" in this test? inactive

So what was the verdict on "CCOP(=O)(OCC)Oc1nc(Cl)c(Cl)cc1Cl" in this test? active

So what was the verdict on "Cc1nc(N(C)C)nc(OC(=O)N(C)C)c1C" in this test? inactive

So what was the verdict on COCC(C)N(C(=O)CCl)c1c(C)csc1C (configuration not stated) in this test? inactive
